# assayed-system: Protein farnesyltransferase (Sus scrofa)
# assay: Inhibition of pig brain farnesyl transferase
# run-parameters: read-out: I50
measure: IC50 (µM)
Use µM as the unit, but write only the number.

Problem: Lab note: need IC50 for CC(C)=CCC/C(C)=C/CC/C(C)=C/C(=O)N[C@@H](CC(=O)O)C(=O)O on Protein farnesyltransferase (Sus scrofa), anyone have it?
Solution: 12.6

Problem: Likewise for CC(C)=CCC/C(C)=C/CC/C(C)=C/CCNC(=O)C(CP(=O)(O)O)C(=O)O (centres undefined) ?
Solution: 17.8

Problem: Likewise for CC(C)=CCC/C(C)=C/CC/C(C)=C/CN(C)C(=O)C(CP(=O)(O)O)C(=O)O (centres undefined) ?
Solution: 0.53

Problem: Likewise for CCCCCCCCCCCCNC(=O)C(CP(=O)(O)O)C(=O)O (centres undefined) ?
Solution: 9

src = ChEMBL document CHEMBL1128486
